These measurements were taken from patent US5922723A.

system: synaptosomes from the striatal area of rat brain (dopamine release); assay: Dopamine release from synaptosomes of the striatal area of rat brain; assay type: biochemical, rat (Sprague-Dawley); conditions: rat striatal synaptosomes; % of release by equal concentration of (S)-(-)-nicotine
# Lookup of reported Dopamine Release Emax keyed by entry
Give the value, in units of % nicotine, as a plain number.

Example cases with answers are listed next.
- COMPOUND: "O=C(O)/C=C/C(=O)O.c1cncc(C2NC3CCC2CC3)c1 (racemic)"
  RESULT_VALUE: 4
- COMPOUND: "CCN1[C@H](c2cccnc2)[C@@H]2C=C[C@H]1C2 (relative stereo)"
  RESULT_VALUE: 22
- COMPOUND: "CN1[C@H]2C=C[C@H](CC2)[C@@H]1c1cccnc1 (relative stereo)"
  RESULT_VALUE: 17

Q: Which value of Dopamine Release Emax has been reported for CN1[C@H]2C=C[C@H](C2)[C@@H]1c1cccnc1 (relative stereo) in the records?
A: 58

----------
Muscle Effect: recorded values
target: muscle-like nicotinic receptors (human clonal line TE671/RD) (Homo sapiens, UniProt P02708+P07510+Q07001); construct: these cells express muscle-like nicotinic receptors; endogenous in cells; host or cells: TE671/RD (human embryonal rhabdomyosarcoma clonal line), intact cells; assay type: cell-based; conditions: te671/rd cells
Sequence (P02708 21-457): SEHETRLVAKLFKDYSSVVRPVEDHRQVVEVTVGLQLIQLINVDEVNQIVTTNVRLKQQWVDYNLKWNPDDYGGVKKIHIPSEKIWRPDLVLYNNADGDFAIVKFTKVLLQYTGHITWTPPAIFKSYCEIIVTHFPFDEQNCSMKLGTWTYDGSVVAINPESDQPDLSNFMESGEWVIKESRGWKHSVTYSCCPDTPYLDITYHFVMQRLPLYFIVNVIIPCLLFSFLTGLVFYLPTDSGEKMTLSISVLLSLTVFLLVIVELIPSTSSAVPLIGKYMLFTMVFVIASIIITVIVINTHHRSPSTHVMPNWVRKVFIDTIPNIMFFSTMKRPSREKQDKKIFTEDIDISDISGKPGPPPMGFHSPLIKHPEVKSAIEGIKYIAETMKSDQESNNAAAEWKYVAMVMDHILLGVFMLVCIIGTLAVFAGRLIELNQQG
Sequence (Q07001 22-517): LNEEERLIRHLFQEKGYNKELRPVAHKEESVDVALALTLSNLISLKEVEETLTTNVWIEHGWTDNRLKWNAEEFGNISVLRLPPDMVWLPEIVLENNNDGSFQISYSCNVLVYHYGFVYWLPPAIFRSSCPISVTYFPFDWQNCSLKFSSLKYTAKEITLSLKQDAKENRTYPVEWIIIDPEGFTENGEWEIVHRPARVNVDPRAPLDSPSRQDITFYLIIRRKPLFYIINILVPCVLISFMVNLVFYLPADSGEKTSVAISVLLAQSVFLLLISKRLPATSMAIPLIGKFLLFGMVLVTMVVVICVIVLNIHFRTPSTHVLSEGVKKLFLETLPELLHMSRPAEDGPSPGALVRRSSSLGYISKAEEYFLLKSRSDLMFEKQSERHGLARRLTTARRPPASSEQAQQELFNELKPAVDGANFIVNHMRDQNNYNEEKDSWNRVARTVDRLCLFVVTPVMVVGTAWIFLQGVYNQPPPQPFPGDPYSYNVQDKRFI
Sequence (P07510 23-517): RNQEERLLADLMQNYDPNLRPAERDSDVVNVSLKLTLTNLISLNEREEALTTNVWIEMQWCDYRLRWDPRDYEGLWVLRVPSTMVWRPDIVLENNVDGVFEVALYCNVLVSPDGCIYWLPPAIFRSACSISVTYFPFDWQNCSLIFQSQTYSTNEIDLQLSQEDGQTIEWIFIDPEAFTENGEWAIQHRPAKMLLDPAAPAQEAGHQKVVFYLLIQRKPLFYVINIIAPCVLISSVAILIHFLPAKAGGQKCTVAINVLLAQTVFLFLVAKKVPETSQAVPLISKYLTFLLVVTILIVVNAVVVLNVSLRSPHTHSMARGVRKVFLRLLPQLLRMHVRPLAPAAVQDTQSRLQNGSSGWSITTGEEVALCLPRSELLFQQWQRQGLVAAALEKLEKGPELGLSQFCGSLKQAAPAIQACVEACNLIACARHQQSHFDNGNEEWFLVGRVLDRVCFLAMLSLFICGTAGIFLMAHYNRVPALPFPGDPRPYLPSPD
The response must contain the number and no unit.

- COMPOUND: "C1=C[C@H]2CC[C@@H]1[C@@H](c1cccnc1)N2 (relative stereo) [Sample No. 1]"
  Muscle Effect: 69

Q: Report Muscle Effect for CN1C2CCC(CC2)C1c1cccnc1 (racemic) [Sample No. 6] please.
A: 30

Q: Reported Muscle Effect for CN1[C@H](c2cccnc2)[C@@H]2C=C[C@H]1C2 (relative stereo) [Sample No. 10] : what is it?
A: 25

----------
tested on: synaptosomes from the striatal area of rat brain (dopamine release); assay: Dopamine release from synaptosomes of the striatal area of rat brain; assay type: biochemical, rat (Sprague-Dawley); conditions: rat striatal synaptosomes; % of release by equal concentration of (S)-(-)-nicotine
Documented Dopamine Release Emax across a set of compounds
Give the value, in units of % nicotine, as a plain number.

Examples with their reported Dopamine Release Emax follow.
- COMPOUND: "C1=C[C@H]2CC[C@@H]1[C@@H](c1cccnc1)N2 (relative stereo)"
  Dopamine Release Emax (% nicotine): 14
- COMPOUND: "CN1[C@H](c2cncc(Br)c2)[C@@H]2C=C[C@H]1C2 (relative stereo)"
  Dopamine Release Emax (% nicotine): 12
- COMPOUND: "C1=C[C@H]2CC[C@@H]1[C@H](c1cccnc1)N2 (relative stereo)"
  Dopamine Release Emax (% nicotine): 41
- COMPOUND: "CN1C2CCC(CC2)C1c1cccnc1 (racemic)"
  Dopamine Release Emax (% nicotine): 10
- COMPOUND: "CN1[C@H](c2cccnc2)[C@@H]2C=C[C@H]1C2 (relative stereo)"
  Dopamine Release Emax (% nicotine): 44

Q: What measured Dopamine Release Emax is associated with C1=C[C@H]2C[C@@H]1[C@@H](c1cccnc1)N2Cc1ccccc1 (relative stereo) on synaptosomes from the striatal area of rat brain (dopamine release)?
A: 30

Q: Checklist item: Dopamine Release Emax tested on synaptosomes from the striatal area of rat brain (dopamine release), entry CN1CCC[C@H]1c1cccnc1 [Sample No. C-1, (S)-(-)-nicotine, reference compound] , value?
A: 100

Q: Return Dopamine Release Emax measured with synaptosomes from the striatal area of rat brain (dopamine release) given this compound: CN1[C@H](c2cccnc2)[C@@H]2C=C[C@H]1CC2 (relative stereo)
A: 9
